Numbers sourced from patent EP4122466A1.

test system: VSV*ΔG(Luc)-S virus; experiment: organism not typed; assay type: cell-based
pEC50: −log10 of the molar value.
readout_kind: pEC50

>>> print(df.to_string())
                         structure_notation  result_value
0  Cc1cn(-c2cc(NC(=O)c3ccc(C)c(Nc4nccc(-c5cccnc5)n4)c3)cc(C(F)(F)F)c2)cn1        < 4.82

Ask: Supply pEC50 value. Item: `CN1CCN(c2ccc(C(=O)Nc3n[nH]c4ccc(Cc5cc(F)cc(F)c5)cc34)c(NC3CCOCC3)c2)CC1`
Result: > 6.00
